Provide the reported Percent Effect of each item.
Tested on: Trypanosoma cruzi
method.description: Trypanosoma cruzi phosphomannomutase and mannose-1-phosphate guanylyltransferase assay
Format: functional
Design: scale not given: direction of the effect not stated beside the values
assay.setup: 10 µM
One number for each entry, in %.

Solved entries (count: 3):
{"columns": ["compound", "unit.string", "Percent Effect"],
 "data": [
  ["c1csc(CN2CC[C@H]3C[C@H](c4ccncn4)O[C@@H]3C2)c1", "%", -7.99],
  ["Cc1cc(CN2CC[C@H]3C[C@H](C(=O)N(C)C)O[C@@H]3C2)no1", "%", 5.36],
  ["c1cnc(N2CCCC3(CCN(Cc4ccncc4)C3)C2)nc1 (centres undefined)", "%", -1.66]
]}

For each of the compounds below, note its Percent Effect.
1. CN(C)C(=O)CN1CCN(C(=O)Cc2csc(-c3ncccn3)n2)CC1
2. COCc1cncc2c1CCN(Cc1ccccn1)C2
3. CCc1noc(C(C)N2CCNCC2)n1 (centres undefined)
4. Cc1noc(C)c1CN1CC[C@H]2C[C@@H](c3nccs3)O[C@@H]2C1
5. O=C(c1cnn2c1OCCC2)N1CCC2(CC1)OCCO2
6. O=C(Nc1cccnc1)[C@H]1CN(Cc2nccs2)C[C@H]2OCC[C@@H]12
7. COc1cc(CNCC(O)c2ccc(F)c(F)c2)cc2c1OCO2 (centres undefined)
8. CC(C)(C)n1cc(C(=O)NCCCn2ccnc2)c2cccnc21

Ans:
[-3.19, -0.391, -0.602, 0.88, -6.02, -0.591, -6.41, 4.73]
